- Test system: DU-145 prostate
- assay_protocol: NCI tumour cell line growth inhibition, 48 h
value_kind: TGI (µM)
Kindly provide the numeric value in µM only, without the unit symbol.

Exercise: Which TGI value belongs to CCCCCCCCCCCCCCC[C@@H](O)C[N+](C)(C)CCO ?
Solution: 48.2

Exercise: Query: TGI; subject: CN1CCN(CCCOc2ccc3nc(Nc4ccc(C(F)(F)F)c(Cl)c4)ccc3c2)CC1
Solution: 3.09

Exercise: // returns reported TGI for input Cc1[nH]c2ccccc2c1C1=CC(=O)C=CC1=O
Solution: 26.8

Exercise: Would you kindly share the measured TGI for O=C(O)CP(=O)(c1ccccc1)c1ccccc1.O=C(O)CP(=O)(c1ccccc1)c1ccccc1.[Cd] ?
Solution: 41.3

Exercise: Entry CCc1cccc(CC)c1NC(=O)c1ccn2c1CCc1cnc(Nc3ccc(N4CCN(C)CC4)cc3OC)nc1-2 : reported TGI = ?
Solution: 15.8

Exercise: Report TGI for O=C1c2ccccc2CCC1(Br)Br please.
Solution: 12

Exercise: Bench note: what TGI did CC#CC(=O)N[C@H]1CCCN(c2c(F)cc(C(N)=O)c3[nH]c(C)c(C)c23)C1 show?
Solution: 88.5

Exercise: I would be grateful if you could share the reported TGI for COC(=O)CCSC1=CC(=O)c2nc3ccccc3c3ccnc1c23 .
Solution: 48.1
